# Tested on: 695427-040-R-J1-PDC complex spheroid viability
# assay_method_text: Anticancer human tumor 695427-040-R-J1-PDC patient-derived colon adenocarcinoma cell line growth inhibition [RAS]
# particulars: second compound 0.000949 µM; first compound 0.03 µM; active compounds read low
Reported viability, T/C values for the following compounds.
Give just the numeric value; % need not be written.

These recorded examples may help you get a feel for the data.
CC1(C)CCC(Nc2ncc(C(F)(F)F)c(-c3c[nH]c4c(P(C)(C)=O)c(C#N)ccc34)n2)CN1 (centres undefined) + CCn1c(-c2cc(N3CCN(C)CC3)cnc2C(C)OC)c2c3cc(ccc31)-c1csc(n1)CC(NC(=O)C1CC1C)C(=O)N1CCCC(N1)C(=O)OCC(C)(C)C2: 92.2
CC1(C)CCC(Nc2ncc(C(F)(F)F)c(-c3c[nH]c4c(P(C)(C)=O)c(C#N)ccc34)n2)CN1 (centres undefined) + CCn1c(-c2cccnc2C(C)OC)c2c3cc(ccc31)N1CCOC(CC(NC(=O)C(C(C)C)N(C)C(=O)C3(F)CCN(C(=O)C#CC(C)(C)N(C)C)CC3)C(=O)N3CCCC(N3)C(=O)OCC(C)(C)C2)C1: 100
CCc1c2c(nc3ccc(O)cc13)-c1cc3c(c(=O)n1C2)COC(=O)[C@]3(O)CC + CCn1c(-c2cc(N3CCN(C)CC3)cnc2C(C)OC)c2c3cc(ccc31)-c1csc(n1)CC(NC(=O)C1CC1C)C(=O)N1CCCC(N1)C(=O)OCC(C)(C)C2: 61.8

Query :: Complete the entry with viability, T/C for CCc1c2c(nc3ccc(O)cc13)-c1cc3c(c(=O)n1C2)COC(=O)[C@]3(O)CC + CCn1c(-c2cccnc2C(C)OC)c2c3cc(ccc31)N1CCOC(CC(NC(=O)C(C(C)C)N(C)C(=O)C3(F)CCN(C(=O)C#CC(C)(C)N(C)C)CC3)C(=O)N3CCCC(N3)C(=O)OCC(C)(C)C2)C1
Result :: 61.5

====

# System: 695427-040-R-J1-PDC complex spheroid viability
# assay_method_text: Anticancer human tumor 695427-040-R-J1-PDC cell line growth inhibition [RAS];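 further: viability read after seven days of drug exposure; 100% = DMSO vehicle control viability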
# particulars: second compound 0.003 µM; first compound 10 µM; active compounds read low
measured_metric: viability, T/C (%)
Give just the numeric value; % need not be written.

These recorded examples may help you get a feel for the data.
Cc1nc(N2CCC3(CC2)COC(C)C3N)c(CO)nc1Sc1ccnc(N)c1Cl (stereo unspecified) + CCn1c(-c2cccnc2C(C)OC)c2c3cc(ccc31)N1CCOC(CC(NC(=O)C(C(C)C)N(C)C(=O)C3(F)CCN(C(=O)C#CC(C)(C)N(C)C)CC3)C(=O)N3CCCC(N3)C(=O)OCC(C)(C)C2)C1: 47.3
CC(C)NCC(C(=O)N1CCN(c2ncnc3c2C(C)CC3O)CC1)c1ccc(Cl)cc1 (stereo unspecified) + CCn1c(-c2cccnc2C(C)OC)c2c3cc(ccc31)N1CCOC(CC(NC(=O)C(C(C)C)N(C)C(=O)C3(F)CCN(C(=O)C#CC(C)(C)N(C)C)CC3)C(=O)N3CCCC(N3)C(=O)OCC(C)(C)C2)C1: 54.6
CC(=O)OC12COC1CC(O)C1(C)C(=O)C(O)C3=C(C)C(OC(=O)C(O)C(NC(=O)OC(C)(C)C)c4ccccc4)CC(O)(C(OC(=O)c4ccccc4)C21)C3(C)C (stereo unspecified) + CCn1c(-c2cccnc2C(C)OC)c2c3cc(ccc31)N1CCOC(CC(NC(=O)C(C(C)C)N(C)C(=O)C3(F)CCN(C(=O)C#CC(C)(C)N(C)C)CC3)C(=O)N3CCCC(N3)C(=O)OCC(C)(C)C2)C1: 66.9
NC1c2ccccc2OC12CCN(c1cnc3c(N4CCCc5ncccc54)n[nH]c3n1)CC2 (stereo unspecified) + CCn1c(-c2cc(N3CCN(C)CC3)cnc2C(C)OC)c2c3cc(ccc31)-c1csc(n1)CC(NC(=O)C1CC1C)C(=O)N1CCCC(N1)C(=O)OCC(C)(C)C2: 20.5
C[C@@H](NC(=O)c1ncnc(N)c1Cl)c1ncc(C(=O)Nc2cc(C(F)(F)F)c(Cl)cn2)s1 + CCn1c(-c2cccnc2C(C)OC)c2c3cc(ccc31)N1CCOC(CC(NC(=O)C(C(C)C)N(C)C(=O)C3(F)CCN(C(=O)C#CC(C)(C)N(C)C)CC3)C(=O)N3CCCC(N3)C(=O)OCC(C)(C)C2)C1: 68.5
CCC(CC)c1cc(NC2CCC(N)C2)n2nccc2n1 (stereo unspecified) + CCn1c(-c2cc(N3CCN(C)CC3)cnc2C(C)OC)c2c3cc(ccc31)-c1csc(n1)CC(NC(=O)C1CC1C)C(=O)N1CCCC(N1)C(=O)OCC(C)(C)C2: 10.9
CC(Nc1ccc2c(c1)OCCn1cc(N3C(=O)OCC3C(F)F)nc1-2)C(N)=O (stereo unspecified) + CCn1c(-c2cccnc2C(C)OC)c2c3cc(ccc31)N1CCOC(CC(NC(=O)C(C(C)C)N(C)C(=O)C3(F)CCN(C(=O)C#CC(C)(C)N(C)C)CC3)C(=O)N3CCCC(N3)C(=O)OCC(C)(C)C2)C1: 37.5
CC1(O)CCCC1n1c(=O)c(C(F)F)cc2cnc(NC3CCN(S(C)(=O)=O)CC3)nc21 (stereo unspecified) + CCn1c(-c2cccnc2C(C)OC)c2c3cc(ccc31)N1CCOC(CC(NC(=O)C(C(C)C)N(C)C(=O)C3(F)CCN(C(=O)C#CC(C)(C)N(C)C)CC3)C(=O)N3CCCC(N3)C(=O)OCC(C)(C)C2)C1: 86.3
CC(=O)OC12COC1CC(O)C1(C)C(=O)C(O)C3=C(C)C(OC(=O)C(O)C(NC(=O)OC(C)(C)C)c4ccccc4)CC(O)(C(OC(=O)c4ccccc4)C21)C3(C)C (stereo unspecified) + CCn1c(-c2cc(N3CCN(C)CC3)cnc2C(C)OC)c2c3cc(ccc31)-c1csc(n1)CC(NC(=O)C1CC1C)C(=O)N1CCCC(N1)C(=O)OCC(C)(C)C2: 65.4
CCC(CC)c1cc(NC2CCC(N)C2)n2nccc2n1 (stereo unspecified) + CCn1c(-c2cccnc2C(C)OC)c2c3cc(ccc31)N1CCOC(CC(NC(=O)C(C(C)C)N(C)C(=O)C3(F)CCN(C(=O)C#CC(C)(C)N(C)C)CC3)C(=O)N3CCCC(N3)C(=O)OCC(C)(C)C2)C1: 9.28

Query :: Complete the entry with viability, T/C for CC(C)NCC(C(=O)N1CCN(c2ncnc3c2C(C)CC3O)CC1)c1ccc(Cl)cc1 (stereo unspecified) + CCn1c(-c2cc(N3CCN(C)CC3)cnc2C(C)OC)c2c3cc(ccc31)-c1csc(n1)CC(NC(=O)C1CC1C)C(=O)N1CCCC(N1)C(=O)OCC(C)(C)C2
Result :: 59.2

Query :: Complete the entry with viability, T/C for CC(Nc1ccc2c(c1)OCCn1cc(N3C(=O)OCC3C(F)F)nc1-2)C(N)=O (stereo unspecified) + CCn1c(-c2cc(N3CCN(C)CC3)cnc2C(C)OC)c2c3cc(ccc31)-c1csc(n1)CC(NC(=O)C1CC1C)C(=O)N1CCCC(N1)C(=O)OCC(C)(C)C2
Result :: 41.9

Query :: Complete the entry with viability, T/C for C[C@@H](NC(=O)c1ncnc(N)c1Cl)c1ncc(C(=O)Nc2cc(C(F)(F)F)c(Cl)cn2)s1 + CCn1c(-c2cc(N3CCN(C)CC3)cnc2C(C)OC)c2c3cc(ccc31)-c1csc(n1)CC(NC(=O)C1CC1C)C(=O)N1CCCC(N1)C(=O)OCC(C)(C)C2
Result :: 70.1

Query :: Complete the entry with viability, T/C for Cc1nc(N2CCC3(CC2)COC(C)C3N)c(CO)nc1Sc1ccnc(N)c1Cl (stereo unspecified) + CCn1c(-c2cc(N3CCN(C)CC3)cnc2C(C)OC)c2c3cc(ccc31)-c1csc(n1)CC(NC(=O)C1CC1C)C(=O)N1CCCC(N1)C(=O)OCC(C)(C)C2
Result :: 32.6

Query :: Complete the entry with viability, T/C for CC1(O)CCCC1n1c(=O)c(C(F)F)cc2cnc(NC3CCN(S(C)(=O)=O)CC3)nc21 (stereo unspecified) + CCn1c(-c2cc(N3CCN(C)CC3)cnc2C(C)OC)c2c3cc(ccc31)-c1csc(n1)CC(NC(=O)C1CC1C)C(=O)N1CCCC(N1)C(=O)OCC(C)(C)C2
Result :: 71

Query :: Complete the entry with viability, T/C for NC1c2ccccc2OC12CCN(c1cnc3c(N4CCCc5ncccc54)n[nH]c3n1)CC2 (stereo unspecified) + CCn1c(-c2cccnc2C(C)OC)c2c3cc(ccc31)N1CCOC(CC(NC(=O)C(C(C)C)N(C)C(=O)C3(F)CCN(C(=O)C#CC(C)(C)N(C)C)CC3)C(=O)N3CCCC(N3)C(=O)OCC(C)(C)C2)C1
Result :: 38.6
